MIC values, listed per item
Tested on: Staphylococcus aureus 703(MRSA)
Assay: microbe, parasite or virus in culture
Assay type: cell-based
Conditions: Staphylococcus aureus, MRSA, 24 h, read-out: MIC values of in vitro antibacterial test results

Cc1nn2c([O-])cc(-c3ccc([N+](=O)[O-])nc3)nc2c1-c1ccc(F)cc1F.[Na+] [Compound 16]: < 100 µg/mL
COc1ccc(-c2cc([O-])n3nc(C)c(-c4ccc(F)cc4F)c3n2)cn1.[Na+] [Compound 17]: < 150 µg/mL
Cc1nn2c([O-])cc(-c3ccc(N(C)C)nc3)nc2c1-c1ccc(F)cc1F.[Na+] [Compound 18]: < 150 µg/mL
Cc1nn2c([O-])cc(-c3ccc(C(F)(F)F)cc3)nc2c1-c1ccc(F)cc1F.[Na+] [Compound 1]: < 150 µg/mL
Cc1nn2c([O-])cc(-c3ccc([N+](=O)[O-])cc3)nc2c1-c1ccc(F)cc1F.[K+] [Compound 23]: < 150 µg/mL

Please look at the following compound next.
Which MIC value is on record for Cc1nn2c([O-])cc(-c3ccc(C(F)(F)F)cc3)nc2c1-c1ccc(F)cc1F.[K+] [Compound 22] ?
< 100 µg/mL

meta.source: patent US20210094954A1
